- TARGET_DESC: Human Topoisomerase IIα (Homo sapiens)
- Construct: purchased USB, Affymetrix, Waltham, MA, USA
- Sequence (P11388 whole entry): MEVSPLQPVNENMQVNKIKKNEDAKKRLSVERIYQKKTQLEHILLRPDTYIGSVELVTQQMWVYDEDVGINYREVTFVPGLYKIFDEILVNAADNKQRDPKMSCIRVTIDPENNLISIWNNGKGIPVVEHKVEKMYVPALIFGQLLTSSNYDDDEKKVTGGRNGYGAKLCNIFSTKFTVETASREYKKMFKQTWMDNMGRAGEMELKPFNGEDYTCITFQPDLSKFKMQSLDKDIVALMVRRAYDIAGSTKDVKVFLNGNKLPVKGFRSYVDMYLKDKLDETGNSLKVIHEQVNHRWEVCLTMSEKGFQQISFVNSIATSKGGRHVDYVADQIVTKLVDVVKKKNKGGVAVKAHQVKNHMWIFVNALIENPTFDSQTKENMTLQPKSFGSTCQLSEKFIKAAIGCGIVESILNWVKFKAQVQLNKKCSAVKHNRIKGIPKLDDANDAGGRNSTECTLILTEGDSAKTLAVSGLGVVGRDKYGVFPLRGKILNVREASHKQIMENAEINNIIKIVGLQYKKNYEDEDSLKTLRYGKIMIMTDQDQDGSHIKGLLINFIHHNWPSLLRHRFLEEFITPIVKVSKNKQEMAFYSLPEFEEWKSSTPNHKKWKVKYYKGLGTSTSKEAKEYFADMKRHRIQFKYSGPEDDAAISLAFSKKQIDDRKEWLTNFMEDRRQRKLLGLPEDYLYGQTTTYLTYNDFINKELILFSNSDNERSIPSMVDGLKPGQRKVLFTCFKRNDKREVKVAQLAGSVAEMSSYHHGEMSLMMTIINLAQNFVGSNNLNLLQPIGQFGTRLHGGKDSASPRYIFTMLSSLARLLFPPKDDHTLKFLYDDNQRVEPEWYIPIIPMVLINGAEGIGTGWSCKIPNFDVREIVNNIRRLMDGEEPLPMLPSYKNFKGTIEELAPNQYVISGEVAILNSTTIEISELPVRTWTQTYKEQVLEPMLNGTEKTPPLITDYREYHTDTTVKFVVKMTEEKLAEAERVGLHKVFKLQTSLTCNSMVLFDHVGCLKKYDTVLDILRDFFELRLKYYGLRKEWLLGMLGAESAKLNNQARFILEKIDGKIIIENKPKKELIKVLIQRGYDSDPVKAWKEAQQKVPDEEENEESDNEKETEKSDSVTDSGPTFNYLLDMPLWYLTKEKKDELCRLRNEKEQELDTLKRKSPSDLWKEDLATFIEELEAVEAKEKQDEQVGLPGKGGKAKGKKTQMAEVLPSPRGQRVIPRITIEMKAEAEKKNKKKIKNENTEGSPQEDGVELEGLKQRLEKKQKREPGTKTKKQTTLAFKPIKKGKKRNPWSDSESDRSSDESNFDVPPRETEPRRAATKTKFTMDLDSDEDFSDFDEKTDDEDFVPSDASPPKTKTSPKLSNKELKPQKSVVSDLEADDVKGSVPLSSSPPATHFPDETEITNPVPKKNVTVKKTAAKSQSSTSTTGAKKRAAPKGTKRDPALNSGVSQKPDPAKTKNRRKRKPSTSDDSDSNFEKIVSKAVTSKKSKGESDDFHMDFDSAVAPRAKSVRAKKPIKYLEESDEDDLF
- PROTOCOL_DETAILS: Topoisomerase II relaxation assay (supercoiled pBR322)
- Format: biochemical
- CONDITION_INFO: 100 μM compound; read-out: Topo II Inhibition (%) 100 μM
Recorded inhibition at 100 µM values for a group of compounds are listed next.
Hi! Could you send only the number? It should be in %, unit omitted.

Cc1ccc2[nH]c3c(c2c1)C[C@@]1(C)C(CC[C@]2(C)C1CC=C1C4[C@@H](C)[C@H](C)CC[C@]4(C(=O)NCCCCNC(=O)[C@]45CC[C@@H](C)[C@H](C)C4C4=CCC6[C@@]7(C)Cc8c([nH]c9ccc(C)cc89)C(C)(C)C7CC[C@@]6(C)[C@]4(C)CC5)CC[C@]12C)C3(C)C (some centres unmarked) = 16.9

Continue with the next compound.
**Query** GET /values?readout=inhibition at 100 µM&item= Cc1ccc2[nH]c3c(c2c1)C[C@@]1(C)C(CC[C@]2(C)C1CC=C1C4[C@@H](C)[C@H](C)CC[C@]4(C(=O)NCCCCN)CC[C@]12C)C3(C)C (some centres unmarked)
**Result** 71.1

====

- System: LO2 cells
- PROTOCOL_DETAILS: MTT cytotoxicity assay, normal hepatocyte LO2
- Assay type: cell-based
- CONDITION_INFO: Homo sapiens, L02, 48 h exposure, normal hepatocyte cell line
RECORDED_ENDPOINT: IC50 (µM)
Hi! Could you send only the number? It should be in µM, unit omitted.

Worked cases, IC50 given:
Cc1ccc2[nH]c3c(c2c1)C[C@@]1(C)C(CC[C@]2(C)C1CC=C1C4[C@@H](C)[C@H](C)CC[C@]4(C(=O)NCCCCN(C)C)CC[C@]12C)C3(C)C (stereo partly shown) = 18.2
Cc1ccc2[nH]c3c(c2c1)C[C@@]1(C)C(CC[C@]2(C)C1CC=C1C4[C@@H](C)[C@H](C)CC[C@]4(C(=O)NCCCCN4CCN(C)CC4)CC[C@]12C)C3(C)C (stereo partly shown) = 13.7
CCN(CC)CCNC(=O)[C@]12CC[C@@H](C)[C@H](C)C1C1=CCC3[C@@]4(C)Cc5c([nH]c6ccc(C)cc56)C(C)(C)C4CC[C@@]3(C)[C@]1(C)CC2 (stereo partly shown) = 26.4

Continue with the next compound.
**Query** GET /values?readout=IC50&item= COc1cccc2c1C(=O)c1c(O)c3c(c(O)c1C2=O)C[C@@](O)(C(=O)CO)C[C@@H]3O[C@H]1C[C@H](N)[C@H](O)[C@H](C)O1 [DOX, doxorubicin, reference compound]
**Result** 5.32

====

- TARGET_DESC: DNA topoisomerase I (Bos taurus)
- Construct: purchased TaKaRa, Kyoto, Japan
- Sequence (F1MN93 1-767): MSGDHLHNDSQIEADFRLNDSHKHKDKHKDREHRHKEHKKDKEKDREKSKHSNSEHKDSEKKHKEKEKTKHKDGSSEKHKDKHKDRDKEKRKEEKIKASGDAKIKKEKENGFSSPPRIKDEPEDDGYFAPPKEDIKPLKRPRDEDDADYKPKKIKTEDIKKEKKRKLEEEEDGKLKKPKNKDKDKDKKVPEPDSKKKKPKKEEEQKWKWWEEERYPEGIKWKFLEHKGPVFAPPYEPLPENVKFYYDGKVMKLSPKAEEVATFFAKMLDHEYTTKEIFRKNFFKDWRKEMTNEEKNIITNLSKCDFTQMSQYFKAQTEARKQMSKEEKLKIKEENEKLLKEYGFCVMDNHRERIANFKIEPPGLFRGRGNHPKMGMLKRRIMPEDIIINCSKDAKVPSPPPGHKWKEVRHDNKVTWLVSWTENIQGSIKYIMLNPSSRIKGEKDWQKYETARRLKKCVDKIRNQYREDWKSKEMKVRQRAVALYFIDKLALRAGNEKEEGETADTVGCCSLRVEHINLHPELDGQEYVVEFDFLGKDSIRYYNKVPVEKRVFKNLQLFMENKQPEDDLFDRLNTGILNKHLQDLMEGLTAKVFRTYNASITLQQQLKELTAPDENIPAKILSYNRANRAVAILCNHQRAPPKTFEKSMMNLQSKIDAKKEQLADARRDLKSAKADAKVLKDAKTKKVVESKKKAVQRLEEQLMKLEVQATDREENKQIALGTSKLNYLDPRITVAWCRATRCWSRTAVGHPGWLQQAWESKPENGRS
- PROTOCOL_DETAILS: Topoisomerase I relaxation assay (supercoiled pBR322)
- Format: biochemical
- CONDITION_INFO: 100 μM compound; read-out: Topo I Inhibition (%) 100 μM
RECORDED_ENDPOINT: inhibition at 100 µM (%)

Worked cases, inhibition at 100 µM given:
Cc1ccc2[nH]c3c(c2c1)C[C@@]1(C)C(CC[C@]2(C)C1CC=C1C4[C@@H](C)[C@H](C)CC[C@]4(C(=O)NCCN(C)C)CC[C@]12C)C3(C)C (some centres unmarked) = 3.7
Cc1ccc2[nH]c3c(c2c1)C[C@@]1(C)C(CC[C@]2(C)C1CC=C1C4[C@@H](C)[C@H](C)CC[C@]4(C(=O)NCCCCN(C)C)CC[C@]12C)C3(C)C (some centres unmarked) = 15.1
Cc1ccc2[nH]c3c(c2c1)C[C@@]1(C)C(CC[C@]2(C)C1CC=C1C4[C@@H](C)[C@H](C)CC[C@]4(C(=O)NCCCNC(=O)[C@]45CC[C@@H](C)[C@H](C)C4C4=CCC6[C@@]7(C)Cc8c([nH]c9ccc(C)cc89)C(C)(C)C7CC[C@@]6(C)[C@]4(C)CC5)CC[C@]12C)C3(C)C (some centres unmarked) = 2

(A) CCN(CC)CCCCNC(=O)[C@]12CC[C@@H](C)[C@H](C)C1C1=CCC3[C@@]4(C)Cc5c([nH]c6ccc(C)cc56)C(C)(C)C4CC[C@@]3(C)[C@]1(C)CC2 (some centres unmarked)
(B) Cc1ccc2[nH]c3c(c2c1)C[C@@]1(C)C(CC[C@]2(C)C1CC=C1C4[C@@H](C)[C@H](C)CC[C@]4(C(=O)NCCCN4CCCCC4)CC[C@]12C)C3(C)C (some centres unmarked)
**Query** I'm curious whether A or B has the smaller inhibition at 100 µM number. Which is it? Kindly state the label of the option you pick.
**Result** B
(B: 0%, A: 16.8%)
